System: K86415-001-R-J1-PDC complex spheroids, viability
Experiment: Anticancer human tumor K86415-001-R-J1-PDC patient-derived lung adenocarcinoma cell line growth inhibition [RAS]
Conditions: curve of first compound; second compound 0.1 µM
pIC50: −log10 of the molar value.
Provide the recorded pIC50 for the entries that follow.

A selection of reference data follows.
Query: # lookup: pIC50 of CC(Nc1ccc2c(c1)OCCn1cc(N3C(=O)OCC3C(F)F)nc1-2)C(N)=O (centres undefined) + C=CC(=O)N1CCN(c2nc(OCC3CCCN3C)nc3c(F)c(-c4nc(N)cc(C)c4C(F)(F)F)c(Cl)cc23)C(C)C1
Reply: > 7.50

Query: # lookup: pIC50 of CC(=O)OC12COC1CC(O)C1(C)C(=O)C(O)C3=C(C)C(OC(=O)C(O)C(NC(=O)OC(C)(C)C)c4ccccc4)CC(O)(C(OC(=O)c4ccccc4)C21)C3(C)C (centres undefined) + C=CC(=O)N1CCN(c2nc(OCC3CCCN3C)nc3c(F)c(-c4nc(N)cc(C)c4C(F)(F)F)c(Cl)cc23)C(C)C1
Reply: > 7.50

Below are some compounds; for each one, tell me its pIC50.
1. O=C(c1ccc(F)c(F)c1Nc1ccc(I)cc1F)N1CC(O)([C@@H]2CCCCN2)C1 + C#Cc1c(F)ccc2cc(O)cc(-c3ncc4c(N5CC6CCC(C5)N6)nc(OCC56CCCN5CC(F)C6)nc4c3F)c12
2. CCN1CCN(Cc2ccc(Nc3ncc(F)c(-c4cc(F)c5nc(C)n(C(C)C)c5c4)n3)nc2)CC1 + C=CC(=O)N1CCN(c2nc(OCC3CCCN3C)nc3c(F)c(-c4nc(N)cc(C)c4C(F)(F)F)c(Cl)cc23)C(C)C1

Reply:
1. 7.25
2. > 8.50

----------
Test system: K86415-001-R-J1-PDC complex spheroids, viability
Assay: Anticancer human tumor K86415-001-R-J1-PDC cell line growth inhibition [RAS];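 further: spheroids exposed to agents for seven days before readout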
Conditions: second compound 0.003 µM; first compound 0.0316 µM; stronger effect = lower value
MEASURED PARAMETER: viability, T/C (%)
Numbers only, in %.

Query: # lookup: viability, T/C of CC(C)NCC(C(=O)N1CCN(c2ncnc3c2C(C)CC3O)CC1)c1ccc(Cl)cc1 (configuration not stated) + CCn1c(-c2cc(N3CCN(C)CC3)cnc2C(C)OC)c2c3cc(ccc31)-c1csc(n1)CC(NC(=O)C1CC1C)C(=O)N1CCCC(N1)C(=O)OCC(C)(C)C2
Reply: 25

Query molecule follows.
Query: # lookup: viability, T/C of CC(Nc1ccc2c(c1)OCCn1cc(N3C(=O)OCC3C(F)F)nc1-2)C(N)=O (configuration not stated) + CCn1c(-c2cccnc2C(C)OC)c2c3cc(ccc31)N1CCOC(CC(NC(=O)C(C(C)C)N(C)C(=O)C3(F)CCN(C(=O)C#CC(C)(C)N(C)C)CC3)C(=O)N3CCCC(N3)C(=O)OCC(C)(C)C2)C1
Reply: 11.9

----------
Test system: K86415-001-R-J1-PDC complex spheroids, viability
Assay: Anticancer human tumor K86415-001-R-J1-PDC cell line growth inhibition [RAS];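 further: spheroids exposed to agents for seven days before readout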
Conditions: curve of first compound; second compound 0.1 µM
MEASURED PARAMETER: IC50 (µM)
One number for each entry, in µM.

A selection of reference data follows.
Query: # lookup: IC50 of CC(Nc1ccc2c(c1)OCCn1cc(N3C(=O)OCC3C(F)F)nc1-2)C(N)=O (stereo not given) + C#Cc1c(F)ccc2cc(O)cc(-c3ncc4c(N5CC6CCC(C5)N6)nc(OCC56CCCN5CC(F)C6)nc4c3F)c12
Reply: 1.62

Query: # lookup: IC50 of CCC(CC)c1cc(NC2CCC(N)C2)n2nccc2n1 (stereo not given) + C#Cc1c(F)ccc2cc(O)cc(-c3ncc4c(N5CC6CCC(C5)N6)nc(OCC56CCCN5CC(F)C6)nc4c3F)c12
Reply: 1.78

Query: # lookup: IC50 of CC1(O)CCCC1n1c(=O)c(C(F)F)cc2cnc(NC3CCN(S(C)(=O)=O)CC3)nc21 (stereo not given) + C#Cc1c(F)ccc2cc(O)cc(-c3ncc4c(N5CC6CCC(C5)N6)nc(OCC56CCCN5CC(F)C6)nc4c3F)c12
Reply: 4.58

Query compound follows.
Query: # lookup: IC50 of Nc1ccn(C2OC(CO)C(O)C2(F)F)c(=O)n1 (stereo not given) + C#Cc1c(F)ccc2cc(O)cc(-c3ncc4c(N5CC6CCC(C5)N6)nc(OCC56CCCN5CC(F)C6)nc4c3F)c12
Reply: 0.093
